Listed binders paired with reported Kd
experimental-target: T1, human SIRPβ1 extracellular domain + His-tag (NP_006056.2) (human, UniProt O00241 30-371)
T1 construct: also called hSIRPβ1; HuSIRPβ1
T1 sequence (O00241 other isoform, or with tags, fused parts or gaps): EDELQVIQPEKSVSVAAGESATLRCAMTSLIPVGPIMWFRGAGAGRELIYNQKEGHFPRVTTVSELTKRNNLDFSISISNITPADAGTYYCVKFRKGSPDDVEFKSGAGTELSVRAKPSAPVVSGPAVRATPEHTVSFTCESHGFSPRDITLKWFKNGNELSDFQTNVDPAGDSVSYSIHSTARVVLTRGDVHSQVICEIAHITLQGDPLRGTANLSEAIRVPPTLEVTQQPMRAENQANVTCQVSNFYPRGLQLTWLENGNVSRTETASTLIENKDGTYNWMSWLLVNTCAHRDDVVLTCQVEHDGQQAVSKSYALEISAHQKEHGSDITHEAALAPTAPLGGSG
test-method-notes: SPR, Ab captured, ECD-His analyte
Note: unit nM is implicit; provide only the numeric part.

Entry Antibody E20 (antibody, human IgG1, kappa, L234A L235A, V domains shown) VH: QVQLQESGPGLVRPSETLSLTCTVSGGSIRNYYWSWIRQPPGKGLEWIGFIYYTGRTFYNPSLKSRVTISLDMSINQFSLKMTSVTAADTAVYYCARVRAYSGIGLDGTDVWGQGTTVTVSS VL: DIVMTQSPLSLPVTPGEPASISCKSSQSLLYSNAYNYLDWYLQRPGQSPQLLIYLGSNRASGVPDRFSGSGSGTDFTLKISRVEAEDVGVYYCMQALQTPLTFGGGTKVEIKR ; Kd = 435

***
Entry Antibody E12 (antibody, human IgG1, kappa, L234A L235A, V domains shown) VH: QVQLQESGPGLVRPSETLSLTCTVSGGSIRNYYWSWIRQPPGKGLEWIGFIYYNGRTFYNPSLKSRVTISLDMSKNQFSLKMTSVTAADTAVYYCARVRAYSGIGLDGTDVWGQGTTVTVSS VL: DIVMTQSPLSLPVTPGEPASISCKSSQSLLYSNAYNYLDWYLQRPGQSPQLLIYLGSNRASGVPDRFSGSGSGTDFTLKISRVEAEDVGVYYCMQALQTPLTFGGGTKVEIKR ; Kd = 1670

Just for reference, patent US20230012273A1 is where these values come from.
